target: T1, rat PD-L1 (Sino Biological, Cat #80450-R08H) (rat, UniProt D4AE25 19-239); assay: ELISA
T1 construct: not shown: The vendor's polyhistidine tag
T1 sequence (D4AE25 entry or part of it R08H R08H limits assumed): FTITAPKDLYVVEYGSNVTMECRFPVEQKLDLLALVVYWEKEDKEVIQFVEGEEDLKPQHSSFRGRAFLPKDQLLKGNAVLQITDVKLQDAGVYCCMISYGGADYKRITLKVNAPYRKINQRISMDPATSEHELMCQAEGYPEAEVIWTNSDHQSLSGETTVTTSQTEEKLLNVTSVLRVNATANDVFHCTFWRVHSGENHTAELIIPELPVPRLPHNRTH
valueType: binding result

Use these answered entries as a reference point.
[[record]]
binder = "56H3 (antibody, human IgG1, V domains shown) VH: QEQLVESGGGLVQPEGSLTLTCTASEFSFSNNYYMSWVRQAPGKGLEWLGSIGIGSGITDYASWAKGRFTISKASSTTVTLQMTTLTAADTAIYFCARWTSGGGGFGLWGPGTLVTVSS VL: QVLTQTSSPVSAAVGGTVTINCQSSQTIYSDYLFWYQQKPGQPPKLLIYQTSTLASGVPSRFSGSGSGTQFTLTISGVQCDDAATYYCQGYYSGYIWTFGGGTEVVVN"
valuetype = "binding result"
measurement = "no binding"

[[record]]
binder = "33H7 (antibody, human IgG1, V domains shown) VH: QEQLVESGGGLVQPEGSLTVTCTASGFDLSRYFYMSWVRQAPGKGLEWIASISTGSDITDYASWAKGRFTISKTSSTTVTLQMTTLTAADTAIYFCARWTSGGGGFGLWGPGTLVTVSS VL: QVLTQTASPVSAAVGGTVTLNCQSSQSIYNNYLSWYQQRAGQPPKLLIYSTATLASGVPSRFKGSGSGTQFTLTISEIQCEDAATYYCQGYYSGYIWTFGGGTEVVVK"
valuetype = "binding result"
measurement = "no binding"

[[record]]
binder = "56E5 (antibody, human IgG1, V domains shown) VH: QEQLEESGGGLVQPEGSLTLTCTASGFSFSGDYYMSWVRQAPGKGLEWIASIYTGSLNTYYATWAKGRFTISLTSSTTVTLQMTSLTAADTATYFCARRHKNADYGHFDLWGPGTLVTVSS VL: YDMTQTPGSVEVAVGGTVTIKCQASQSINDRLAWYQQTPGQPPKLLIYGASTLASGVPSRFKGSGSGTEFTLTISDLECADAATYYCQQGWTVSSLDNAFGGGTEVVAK"
valuetype = "binding result"
measurement = "no binding"

[[record]]
binder = "33E8 (antibody, human IgG1, V domains shown) VH: QSLEESGGDLVKPGASLTLTCTASGFYFSSGYDMSWVRQAPGKGLEWIASIFTTSGSTWYANWAKGRFTISKTSSTTVTLQMTSLTDADTATYFCTKDGVGSFYMNLWGPGTLVTVSS VL: LVMTQTPASVEVAVGGTVTIKCQASQTIGSNLAWYQQRPGQPPKLLIYKAFTLASGVSSRFKGSGSGTQFTLTISGVECADAATYYCQQGATRINIDNAFGGGTEVVVK"
valuetype = "binding result"
measurement = "no binding"


Asked: // query binding result value for entry 57B10 (antibody, human IgG1, V domains shown) VH: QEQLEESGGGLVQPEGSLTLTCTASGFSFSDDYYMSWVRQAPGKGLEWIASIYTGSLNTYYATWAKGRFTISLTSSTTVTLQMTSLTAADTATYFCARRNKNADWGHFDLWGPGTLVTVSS VL: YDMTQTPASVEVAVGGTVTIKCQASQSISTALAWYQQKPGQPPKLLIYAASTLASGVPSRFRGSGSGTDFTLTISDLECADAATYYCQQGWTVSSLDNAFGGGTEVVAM
Given back: no binding

Asked: // query binding result value for entry 55H3/76D6 (antibody, human IgG1, V domains shown) VH: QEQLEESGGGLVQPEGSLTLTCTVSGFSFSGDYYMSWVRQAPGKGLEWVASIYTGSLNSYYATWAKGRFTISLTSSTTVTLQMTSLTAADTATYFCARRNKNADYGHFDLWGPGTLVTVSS VL: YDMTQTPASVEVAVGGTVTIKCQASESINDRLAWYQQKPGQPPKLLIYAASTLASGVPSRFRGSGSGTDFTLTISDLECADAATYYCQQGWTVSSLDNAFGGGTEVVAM
Given back: no binding

Asked: // query binding result value for entry 73C8 (antibody, human IgG1, V domains shown) VH: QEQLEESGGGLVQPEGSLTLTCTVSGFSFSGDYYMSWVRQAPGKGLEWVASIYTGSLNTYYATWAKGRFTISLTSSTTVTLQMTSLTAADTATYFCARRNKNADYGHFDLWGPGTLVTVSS VL: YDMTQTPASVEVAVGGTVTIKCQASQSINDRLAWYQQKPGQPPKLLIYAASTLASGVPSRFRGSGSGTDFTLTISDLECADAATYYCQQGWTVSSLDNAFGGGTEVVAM
Given back: no binding

Asked: // query binding result value for entry 69D10 (antibody, human IgG1, V domains shown) VH: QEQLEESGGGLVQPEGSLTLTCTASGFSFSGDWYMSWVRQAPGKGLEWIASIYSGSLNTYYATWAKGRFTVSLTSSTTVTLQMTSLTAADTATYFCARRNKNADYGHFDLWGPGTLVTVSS VL: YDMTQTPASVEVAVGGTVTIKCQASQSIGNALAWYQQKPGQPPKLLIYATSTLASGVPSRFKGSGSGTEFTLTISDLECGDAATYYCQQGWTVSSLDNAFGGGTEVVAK
Given back: no binding

Asked: // query binding result value for entry 74F4 (antibody, human IgG1, V domains shown) VH: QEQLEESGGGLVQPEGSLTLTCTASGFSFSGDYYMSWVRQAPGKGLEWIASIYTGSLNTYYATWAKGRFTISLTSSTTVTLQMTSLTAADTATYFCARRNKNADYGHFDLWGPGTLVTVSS VL: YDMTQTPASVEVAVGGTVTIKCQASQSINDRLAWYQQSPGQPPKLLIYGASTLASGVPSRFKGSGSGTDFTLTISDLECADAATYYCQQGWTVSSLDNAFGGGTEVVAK
Given back: no binding

Asked: // query binding result value for entry 27A2 (antibody, human IgG1, V domains shown) VH: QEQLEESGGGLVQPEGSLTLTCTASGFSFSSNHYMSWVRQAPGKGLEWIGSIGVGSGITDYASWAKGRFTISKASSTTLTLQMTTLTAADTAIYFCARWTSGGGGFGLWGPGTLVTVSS VL: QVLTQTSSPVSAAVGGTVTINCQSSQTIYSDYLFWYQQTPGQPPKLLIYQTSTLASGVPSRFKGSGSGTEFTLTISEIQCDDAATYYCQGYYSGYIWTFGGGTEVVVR
Given back: no binding

Asked: // query binding result value for entry 74A9 (antibody, human IgG1, V domains shown) VH: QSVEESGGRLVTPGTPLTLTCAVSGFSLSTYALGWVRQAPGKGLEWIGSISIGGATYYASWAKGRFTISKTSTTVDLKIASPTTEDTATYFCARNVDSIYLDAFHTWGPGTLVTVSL VL: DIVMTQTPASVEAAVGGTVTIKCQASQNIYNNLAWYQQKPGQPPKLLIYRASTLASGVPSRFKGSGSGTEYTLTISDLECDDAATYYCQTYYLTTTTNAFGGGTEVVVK
Given back: no binding

The values you see were collected from patent US20250171542A1.
